- Assay info: Cell viability in Calu-3 cells (cell number per well)
- Experimental setup: human, CC50, Calu-3, 48 h
Result type: CC50 at 48 h

input: // query CC50 at 48 h value for entry `O=C(Nc1ccc(O)c(O)c1)c1cccc(O)c1O`
output: > 200 µM

* * *

- Target under test: SARS-CoV-2 nsp15 endoribonuclease (endoU) (Severe acute respiratory syndrome coronavirus 2, UniProt P0DTD1)
- Assay info: biochemical
- Format: biochemical
- Experimental setup: read-out: 2° FRET Assay IC50
Result type: pIC50
For clarity, pIC50 is expressed as the negative log10 of concentration in mol/L.

> print(dat)
                                   molecule  number
1  CC1(C)C(=O)N=C2C1=C(O)C(=O)c1ccccc12 [BVT-948]    5.30

Here is the next item to consider.
input: GET /values?readout=pIC50&item= C[C@@H]1CNS(=O)(=O)N(c2ccc3c(C#N)nccc3c2)C1 [PF-06260414]
output: 5.11

* * *

- Assay info: Cytotoxicity in Caco-2 cells
- Experimental setup: human
Result type: CC50
Don't forget the unit after the number, please.

input: // query CC50 value for entry O=C(Nc1ccc(O)c(O)c1)c1cccc(O)c1O [Exebryl-1]
output: 61 µM

* * *

- Target under test: SARS-CoV-2 nsp15 endoribonuclease (endoU) (Severe acute respiratory syndrome coronavirus 2)
- Assay info: biochemical
- Type: biochemical
- Experimental setup: 2° FRET Assay IC50
Items are presented alongside their recorded IC50.
Supply the numeric figure in µM, leaving out any unit text.

// below: answered compounds
Compound	Unit descriptor	IC50
COc1cccc2c1C(=O)c1c(O)c3c(c(O)c1C2=O)C[C@@](O)(C(=O)CO)C[C@@H]3O[C@H]1C[C@H](N)[C@H](O)[C@H](C)O1 [Doxorubicin]	µM	7.46
CC1(C)CCC2=C(O1)c1ccccc1C(=O)C2=O [β-Lapachone]	µM	2.78
COc1cccc2c1C(=O)c1c(O)c3c(c(O)c1C2=O)C[C@@](O)(C(=O)CO)C[C@@H]3O[C@H]1C[C@H](N)[C@H](O[C@@H]2CCCCO2)[C@H](C)O1 [pirarubicin]	µM	3.78

input: Any idea what IC50 was measured for COC1=C(N)C(=O)c2nc(-c3nc(C(=O)O)c(C)c(-c4ccc(OC)c(OC)c4O)c3N)ccc2C1=O [Streptonigrin] ?
output: 4.25

* * *

- Assay info: Mammalian cytotoxicity assay, CRL-8155
- Experimental setup: human, CRL-8155 lymphocyte cells
Result type: CC50 at 48 h

For orientation, consider the following solved cases.
> print(dat)
                                   compound     result
1  NCCCNc1ccc2c3c(nn2CCNCCO)-c2c(O)ccc(O)c2C(=O)c13 [Piroxantrone]  < 1.25 µM
2  O=C(Nc1ccc(O)c(O)c1)c1cccc(O)c1O [Exebryl-1]    37.8 µM

Consider now this further compound.
input: Value lookup for CC50 at 48 h; key = O=C(Nc1cccc(C2=NCCN2)c1)c1ccc(-c2ccc(C(=O)Nc3cccc(C4=NCCN4)c3)cc2)cc1 [MMV1580853]
output: > 80 µM

* * *

- Assay info: Cytotoxicity in Vero 76 cells (CPE assay toxicity wells)
- Experimental setup: African green monkey, CC50, Vero 76 cell growth, neutral red staining
Result type: CC50 at 5 days
Please report the result as a number followed by the unit.

input: Find the recorded CC50 at 5 days belonging to O=C(Nc1ccc(O)c(O)c1)c1cccc(O)c1O [Exebryl-1] and report it.
output: 57 µM
